The measurements presented in this section are drawn from patent US10570180B2.

System: A. baumanii ATCC 19606
PROTOCOL NOTES: MIC assay of antibiotics with ATX-101
Type: cell-based
CONDITION DESCRIPTION: Acinetobacter baumannii, ATCC19606, A. baumanii ATCC 19606; APIM conc. 0 μg/ml; read-out: Est MIC
Please go through the items and note down their MIC.

Query: Could you tell me which MIC is on file for CO[C@@H]1[C@@H](OC(N)=O)[C@@H](O)[C@H](Oc2ccc3c(O)c(NC(=O)c4ccc(O)c(CC=C(C)C)c4)c(=O)oc3c2C)OC1(C)C ?
Reply: 8 µg/mL

Query: Recorded MIC for CC[C@@]1([C@@H]2O[C@@H]([C@H]3O[C@@](O)(CO)[C@H](C)C[C@@H]3C)C[C@@H]2C)CC[C@H]([C@]2(C)CC[C@]3(C[C@H](O)[C@@H](C)[C@@H]([C@@H](C)[C@@H](OC)[C@H](C)C(=O)O)O3)O2)O1 , please?
Reply: 64 µg/mL

Query: Can you share its MIC? I mean this compound: C[C@@H](O)[C@H]1C(=O)N2C(C(=O)O)=C(SCCN=CN)C[C@H]12
Reply: 0.25 µg/mL

Query: Would you mind telling me what MIC value was observed for CO[C@H]1/C=C/O[C@@]2(C)Oc3c(C)c(O)c4c(O)c(c(/C=N/N5CCN(C)CC5)c(O)c4c3C2=O)NC(=O)/C(C)=C\C=C\[C@H](C)[C@H](O)[C@@H](C)[C@@H](O)[C@@H](C)[C@H](OC(C)=O)[C@@H]1C ?
Reply: 2 µg/mL
